Tested on: ENR+CD organoids
PROTOCOL: Primary screen: ATP (CellTiter-Glo 3D, CTG) cell number/viability, 2.5-D 384-well ENR+CD organoids;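 note: compounds given at plating and again on day 3 over a 6-day differentiation from ENR+CV stem-cell-enriched precursors, ATP measured on day 6, plate median as control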
CONDITION PARAMETERS: primary screen, standard z score, dose 10.00 uM
Provide the reported Z.CTG of each item.
Respond with the number and no other words.

Form field: reported Z.CTG of CNC(=O)c1cc(Oc2ccc(NC(=O)Nc3cc(C(C)(C)C)nn3-c3ccc4ncccc4c3)c(F)c2)ccn1 [DCC-2036 (Rebastinib)]
−0.769

Try O=C(Nc1cccc(Nc2ncc(Br)c(NCCc3cnc[nH]3)n2)c1)N1CCCC1 next.
−0.949

Let us now turn to NC1(Cc2ccc(Cl)cc2)CCN(c2ncnc3[nH]ccc23)CC1
−0.418

Okay, and Cc1[nH]c2ccccc2c1CCNC(=O)c1cccs1 ?
−0.404

Next molecule up: CC1(COc2ccc3c(c2)ncn3-c2ccc3cccc(N4CCC(N)CC4)c3n2)COC1
−0.808

Same read-out for CCn1c2ccccc2c2cc(Nc3ccnc(NCCCN4CCOCC4)n3)ccc21 ?
−1.808

O=C(O)c1cc2cccc([N+](=O)[O-])c2[nH]1 ?
−0.237

Now consider COc1cc2c(cc1Cc1cccc(Cl)c1F)c(=O)c(C(=O)O)cn2[C@H](CO)C(C)C and answer again.
−1.760

Param item: NC(=O)C1CCCc2c1[nH]c1ccc(Cl)cc21 (centres unmarked) [EX 527 (Selisistat)]
0.766

For COc1cc(Nc2ncc(F)c(Nc3ccc4c(n3)N(COP(=O)(O)O)C(=O)C(C)(C)O4)n2)cc(OC)c1OC [Fostamatinib (R788)] then?
−2.105

Now this one: CCCCCCCCc1ccc(CCC(N)(CO)CO)cc1.Cl [Fingolimod (FTY720) HCl]
−3.116

What about CC1=C(C(=O)OC2CCCCC2)C(c2ccc([N+](=O)[O-])cc2)C2=C(CC(C)(C)CC2=O)N1 (centres unmarked) ?
−0.819

Likewise for CC(C)C[C@H](NC(=O)[C@@H](NC(=O)c1cccc(-c2ccccc2)n1)[C@@H](C)O)B(O)O ?
−2.742

Then Cc1ccc2c(=O)c3cccc(CC(=O)O)c3oc2c1C ?
−0.550

Quick one: COc1ccc(C[C@@H](C)NC[C@H](O)c2ccc(O)c(NC=O)c2)cc1.COc1ccc(C[C@@H](C)NC[C@H](O)c2ccc(O)c(NC=O)c2)cc1.O=C(O)/C=C/C(=O)O [Formoterol Hemifumarate]
0.604

Query CS(=O)(=O)N1CCN(Cc2cc3nc(-c4cccc5[nH]ncc45)nc(N4CCOCC4)c3s2)CC1 next
−2.921

And what about the molecule OC[C@H]1O[C@@H](c2ccc(Cl)c(Cc3ccc(O[C@H]4CCOC4)cc3)c2)[C@H](O)[C@@H](O)[C@@H]1O ?
−0.320
